- measurement.protocol: Chemical stability (relative purity loss) of peptide compounds in buffer formulations (Table 6)
- Format: physicochemical
- applied.conditions: 50 mm hcl + acetonitrile, Buffer pH 1.1 (head; method: 50 mM HCl pH 1.2 + acetonitrile 3:1), 2° C. and 37° C., read-out: Chemical stability (relative purity loss), Buffer pH 1.1
Numbered stars: 1 amine (or outer) side, 2 acyl side, 3 side chain; on linkers, the order of the positions; unused ones are H or OH. Bridge positions count the residues as written; N and C are the ends. Square brackets hold non-standard residues; d marks the D form. Peptide text beside a SMILES is read from it. * marks the point of attachment. Lys(Me,(CH2)4NMe(CH2)5CO) = CN(CCCCCC(=O)[*:3])CCCCN(C)CCCC[C@H](N[*:1])C(=O)[*:2]; Trp(7-Me) = Cc1cccc2c(C[C@H](N)C(=O)O)c[nH]c12; 2Nal = N[C@@H](Cc1ccc2ccccc2c1)C(=O)O; 3Pal = N[C@@H](Cc1cccnc1)C(=O)O; AEEEA = NCCOCCOCCOCC(=O)O; Thp = NC1(C(=O)O)CCOCC1; Me2NCH2CH2 = CN(C)CC*; Aib = CC(C)(N)C(=O)O; Sar = CNCC(=O)O
I'd appreciate it if you could supply degraded at 24 h values for the items below.
Report the value in % with no unit label.

Quick one: degraded at 24 h for CC(=O)NCCCC[C@@H]1NC(=O)[C@H](Cc2c[nH]c3c(C)cccc23)NC(=O)CCCCCN(C)CCCCN(C)CCCC[C@@H](C(=O)N[C@@H](CC(N)=O)C(=O)N[C@@H](Cc2cccnc2)C(=O)N(C)CC(N)=O)NC(=O)C(C)(C)NC(=O)[C@H](Cc2ccc3ccccc3c2)NC(=O)[C@H](Cc2ccc(OCCN(C)C)cc2)NC(=O)C2(CCOCC2)NC1=O [compound 18] ([Trp(7-Me)]K(Ac)[Thp]Y(Me2NCH2CH2)[2Nal][Aib][Lys(Me,(CH2)4NMe(CH2)5CO)]N[3Pal][Sar]-NH2; lactam N-7) ?
3.8

What does the data say about its degraded at 24 h? Entry: Cc1cccc2c(C[C@@H]3NC(=O)COCCOCCOCCNC(=O)CC[C@@H](C(=O)N[C@@H](CC(N)=O)C(=O)N[C@@H](Cc4cccnc4)C(=O)N(C)CC(N)=O)NC(=O)C(C)(C)NC(=O)[C@H](Cc4ccc5ccccc5c4)NC(=O)[C@H](Cc4ccc(OCCN(C)C)cc4)NC(=O)C4(CCOCC4)NC(=O)[C@H](CCC(N)=O)NC3=O)c[nH]c12 [compound 14] ([AEEEA][Trp(7-Me)]Q[Thp]Y(Me2NCH2CH2)[2Nal][Aib]EN[3Pal][Sar]-NH2; lactam N-8)
8.6
